Each recorded value in this set is attributed to ChEMBL document CHEMBL1133662.

Please provide measured Selectivity ratio for the entries that follow.
target: Monoamine transporters; serotonin & dopamine (Homo sapiens) (UniProt P31645+Q01959); assay: Selectivity ratio of SERT/DAT; type: protein assay
Sequence (P31645 whole entry, looked up): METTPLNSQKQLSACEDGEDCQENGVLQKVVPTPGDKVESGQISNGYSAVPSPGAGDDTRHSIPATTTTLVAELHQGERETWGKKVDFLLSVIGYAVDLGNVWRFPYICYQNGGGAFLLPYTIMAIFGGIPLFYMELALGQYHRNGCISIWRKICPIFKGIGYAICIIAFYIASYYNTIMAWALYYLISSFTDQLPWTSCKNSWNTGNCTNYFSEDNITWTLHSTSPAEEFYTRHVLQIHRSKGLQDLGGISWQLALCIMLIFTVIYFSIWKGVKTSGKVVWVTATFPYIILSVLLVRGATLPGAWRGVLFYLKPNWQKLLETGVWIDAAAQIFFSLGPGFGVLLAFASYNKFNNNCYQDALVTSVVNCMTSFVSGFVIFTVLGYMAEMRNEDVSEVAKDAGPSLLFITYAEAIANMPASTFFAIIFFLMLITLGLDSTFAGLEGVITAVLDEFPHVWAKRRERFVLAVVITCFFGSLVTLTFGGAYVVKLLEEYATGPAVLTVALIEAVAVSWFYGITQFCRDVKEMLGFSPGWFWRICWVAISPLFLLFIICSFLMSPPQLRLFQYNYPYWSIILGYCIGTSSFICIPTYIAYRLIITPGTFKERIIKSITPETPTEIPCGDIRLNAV
Sequence (Q01959 whole entry, looked up): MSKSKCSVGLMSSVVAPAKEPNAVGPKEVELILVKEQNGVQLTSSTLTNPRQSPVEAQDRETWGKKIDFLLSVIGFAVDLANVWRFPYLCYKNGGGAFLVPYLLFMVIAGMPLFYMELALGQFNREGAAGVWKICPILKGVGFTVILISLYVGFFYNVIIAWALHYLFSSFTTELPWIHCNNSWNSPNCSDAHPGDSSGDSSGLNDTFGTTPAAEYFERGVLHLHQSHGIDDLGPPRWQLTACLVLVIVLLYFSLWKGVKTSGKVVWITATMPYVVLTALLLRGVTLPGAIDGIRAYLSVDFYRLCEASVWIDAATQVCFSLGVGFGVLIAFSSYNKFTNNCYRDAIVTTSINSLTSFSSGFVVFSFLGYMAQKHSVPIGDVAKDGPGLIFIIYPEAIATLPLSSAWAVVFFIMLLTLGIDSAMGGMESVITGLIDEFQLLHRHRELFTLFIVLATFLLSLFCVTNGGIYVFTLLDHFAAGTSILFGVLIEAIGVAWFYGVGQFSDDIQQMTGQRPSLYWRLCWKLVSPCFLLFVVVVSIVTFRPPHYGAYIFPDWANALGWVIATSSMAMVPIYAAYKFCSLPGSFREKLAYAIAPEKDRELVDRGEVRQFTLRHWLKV
Returns: the value as a bare number; no unit string appended.

Field Selectivity ratio (system: Monoamine transporters; serotonin & dopamine (Homo sapiens) (UniProt P31645+Q01959)) for entry Fc1ccc(CCNCC2CCCN(CCOC(c3ccccc3)c3ccccc3)C2)cc1 (stereo not given) = 10.2

Short answer on Monoamine transporters; serotonin & dopamine (Homo sapiens) (UniProt P31645+Q01959) for Fc1ccc(CCN2CCCC(CNCCOC(c3ccccc3)c3ccccc3)C2)cc1 (stereo not given) , Selectivity ratio: 3.3

Considering CN(CCCc1ccccc1)C1CCN(CCOC(c2ccccc2)c2ccccc2)CC1 , its Selectivity ratio with Monoamine transporters; serotonin & dopamine (Homo sapiens) (UniProt P31645+Q01959) was recorded as 0.3

For the compound CN(CCOC(c1ccccc1)c1ccccc1)C1CCN(CCCc2ccccc2)CC1 , the measured Selectivity ratio on Monoamine transporters; serotonin & dopamine (Homo sapiens) (UniProt P31645+Q01959) was 47.3

Lab entry: Monoamine transporters; serotonin & dopamine (Homo sapiens) (UniProt P31645+Q01959) assay, compound Fc1ccc(CCNC2CCN(CCOC(c3ccccc3)c3ccccc3)CC2)cc1 , Selectivity ratio = 2

Here c1ccc(CCCN2CCCC(CNCCOC(c3ccccc3)c3ccccc3)C2)cc1 (stereo not given) was tested on Monoamine transporters; serotonin & dopamine (Homo sapiens) (UniProt P31645+Q01959), and its Selectivity ratio came to 11.9

Bench note, Monoamine transporters; serotonin & dopamine (Homo sapiens) (UniProt P31645+Q01959): entry c1ccc(CCCNC2CCN(CCOC(c3ccccc3)c3ccccc3)CC2)cc1 , its Selectivity ratio = 0.4

# Selectivity ratio measured on Monoamine transporters; serotonin & dopamine (Homo sapiens) (UniProt P31645+Q01959) for item c1ccc(CCCNCC2CCCN(CCOC(c3ccccc3)c3ccccc3)C2)cc1 (stereo not given) = 4.5

The reported Monoamine transporters; serotonin & dopamine (Homo sapiens) (UniProt P31645+Q01959) Selectivity ratio of c1ccc(CN2CCC(NCCOC(c3ccccc3)c3ccccc3)CC2)cc1 is 26

Noted Selectivity ratio for CN(CCc1ccc(F)cc1)CC1CCCN(CCOC(c2ccccc2)c2ccccc2)C1 (stereo not given) , tested on Monoamine transporters; serotonin & dopamine (Homo sapiens) (UniProt P31645+Q01959): 5.9

====

Exercise: state measured IC50 for each of the compounds provided.
molecular target: Sodium-dependent dopamine transporter (Homo sapiens, UniProt Q01959); test: Inhibition of [3H]dopamine reuptake in HEK293 cells expressing human dopamine transporter
Sequence (Q01959 whole entry): as the sequence (Q01959 whole entry, looked up) above
Respond numerically; units are nM and should not be typed.

IC50 reading for Fc1ccc(CCNC2CCN(CCOC(c3ccccc3)c3ccccc3)CC2)cc1 : 320

response.value for Fc1ccc(CCNCC2CCCN(CCOC(c3ccccc3)c3ccccc3)C2)cc1 (centres undefined) (field: IC50) = 364

In plain terms, Fc1ccc(CCN2CCCC(CNCCOC(c3ccccc3)c3ccccc3)C2)cc1 (centres undefined) has a documented IC50 of 500

The compound listed as c1ccc(CCCN2CCCC(CNCCOC(c3ccccc3)c3ccccc3)C2)cc1 (centres undefined) has a reported IC50 of 150
